# TARGET_DESC: T1, ClpC (S437P) (M. smegmatis)
# T1 construct: also called ClpC variant; ClpC (S437P) variant; source: E. coli BL21 (DE3), pET28a, purified (IMAC on Ni Sepharose 6 FF, desalting)
# PROCEDURE_SUMMARY: SPR; Biacore 8K; ClpC or ClpC (S437P) amine-coupled on a CM5 chip at pH 4.0 (around 6500 RU); COG1410 flowed at 125 to 2000 nM (2-fold dilutions); PBS pH 7.4, 0.05% tween-20, 25 °C, 30 μL/min; 1:1 Langmuir binding model
# REPORTED_CONDITIONS: both partners purified
Square brackets hold non-standard residues; d marks the D form. Ends that are not written are not given here. Aib = CC(C)(N)C(=O)O
REPORTED_ENDPOINT: pKd
Answers are plain numbers, as −log10 of the molar value.

(Q) Consider the binder shown here: AS[Aib]LRKL[Aib]KRLL (not fully specified (N-terminus, C-terminus)) [COG1410] What is its recorded pKd?
(A) 5.88
